- studyTarget: β-galactosidase (Aspergillus Oryzae) (Aspergillus oryzae)
- Construct: purchased
- Sequence (Q2UCU3 19-1005): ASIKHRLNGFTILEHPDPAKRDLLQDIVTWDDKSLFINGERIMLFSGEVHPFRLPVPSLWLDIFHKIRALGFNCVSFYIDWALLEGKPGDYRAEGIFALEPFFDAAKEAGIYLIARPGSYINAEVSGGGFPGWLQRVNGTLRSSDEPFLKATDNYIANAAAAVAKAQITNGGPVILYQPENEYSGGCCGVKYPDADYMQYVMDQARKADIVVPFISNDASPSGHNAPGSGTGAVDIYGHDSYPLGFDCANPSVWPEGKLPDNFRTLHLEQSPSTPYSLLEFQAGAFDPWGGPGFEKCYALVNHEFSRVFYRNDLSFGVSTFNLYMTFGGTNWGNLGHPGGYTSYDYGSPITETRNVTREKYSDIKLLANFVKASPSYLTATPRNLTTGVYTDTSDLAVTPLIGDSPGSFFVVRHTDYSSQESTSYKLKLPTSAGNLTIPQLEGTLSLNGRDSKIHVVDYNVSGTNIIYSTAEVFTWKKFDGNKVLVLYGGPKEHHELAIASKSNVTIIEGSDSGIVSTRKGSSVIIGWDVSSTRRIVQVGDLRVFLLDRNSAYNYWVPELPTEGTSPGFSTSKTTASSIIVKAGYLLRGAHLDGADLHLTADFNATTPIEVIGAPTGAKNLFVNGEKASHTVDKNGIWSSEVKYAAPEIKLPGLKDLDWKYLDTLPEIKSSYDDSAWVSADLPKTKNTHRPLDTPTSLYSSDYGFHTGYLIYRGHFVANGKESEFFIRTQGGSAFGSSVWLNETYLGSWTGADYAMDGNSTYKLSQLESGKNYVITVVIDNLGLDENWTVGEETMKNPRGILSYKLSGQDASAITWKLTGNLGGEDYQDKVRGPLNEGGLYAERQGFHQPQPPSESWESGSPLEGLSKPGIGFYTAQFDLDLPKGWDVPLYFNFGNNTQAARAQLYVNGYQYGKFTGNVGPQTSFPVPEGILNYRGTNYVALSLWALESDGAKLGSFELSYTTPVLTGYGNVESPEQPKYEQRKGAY
- testMethodNotes: β-Galactosidase (A. oryzae) inhibition
- Type: biochemical
Quick list: IC50 per entry.

Examples with their reported IC50 follow.
molecule	IC50
OC[C@@H]1[C@@H](O)[C@H](O)[C@@H](O)CN1CCCCCOCCc1ccccc1 [Compound 12a]	> 100 µM
OC[C@@H]1[C@@H](O)[C@H](O)[C@@H](O)CN1CCCCCCOCCc1ccc(O)c(O)c1 [Compound 11d]	> 100 µM
OC[C@@H]1[C@@H](O)[C@H](O)[C@@H](O)CN1CCCCCCOCCc1ccc2c(c1)OCO2 [Compound 11g]	> 100 µM
COc1cc(CCOCCCCCCN2C[C@H](O)[C@@H](O)[C@H](O)[C@H]2CO)ccc1O [Compound 11f]	> 100 µM

Task: Could you tell me which IC50 is on file for COc1ccc(CCOCCCCCN2C[C@H](O)[C@@H](O)[C@H](O)[C@H]2CO)cc1 [Compound 12c] ?
Output: > 100 µM
